Tested on: affinity purified β2GPI-dependent antiphospholipid antibody
test: Competitive inhibition ELISA: recombinant β2GPI proteins compete for antibody binding to coated full length recombinant β2GPI
Set-up: species or system human
condition details: Ab 6626
assay endpoint: Max (maximum inhibition observed at concentrations tested) (%)
Return type: number; implicit unit %.

Look up Max (maximum inhibition observed at concentrations tested): 1234-: recombinant β2GPI deletion mutant with domains 1, 2, 3, 4 (protein) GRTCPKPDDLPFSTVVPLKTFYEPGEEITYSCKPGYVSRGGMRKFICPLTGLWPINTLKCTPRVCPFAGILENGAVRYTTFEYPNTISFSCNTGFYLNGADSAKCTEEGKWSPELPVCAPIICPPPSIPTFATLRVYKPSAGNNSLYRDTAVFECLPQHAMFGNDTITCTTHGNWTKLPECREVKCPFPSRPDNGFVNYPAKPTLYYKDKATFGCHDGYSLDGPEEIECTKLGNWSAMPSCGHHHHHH
40

How about this molecule: recombinant β2GPI domain 5 with GlyHis6 (----5) (protein) GRASCKLPVKKATVVYQGERVKIQEKFKNGMLHGDKVSFFCKNKEKKCSYTEDAQCIDGTIEVPKCFKEHSSLAFWKTDASDVKPCGHHHHHH
10

Repeat for the following molecule: -2345: recombinant β2GPI deletion mutant with domains 2-5 (protein) GRTPRVCPFAGILENGAVRYTTFEYPNTISFSCNTGFYLNGADSAKCTEEGKWSPELPVCAPIICPPPSIPTFATLRVYKPSAGNNSLYRDTAVFECLPQHAMFGNDTITCTTHGNWTKLPECREVKCPFPSRPDNGFVNYPAKPTLYYKDKATFGCHDGYSLDGPEEIECTKLGNWSAMPSCKASCKLPVKKATVVYQGERVKIQEKFKNGMLHGDKVSFFCKNKEKKCSYTEDAQCIDGTIEVPKCFKEHSSLAFWKTDASDVKPCGHHHHHH
18
